Target: T1, FZD9 cysteine-rich domain (CRD), MYC-tagged and GPI-anchored on CHO cells (human, UniProt O00144 35-161, GPI anchor)
T1 construct: also called FZD9 CRD; CHO-myc-FZDGPI; not shown: MYC tag and GPI anchor signal
T1 sequence: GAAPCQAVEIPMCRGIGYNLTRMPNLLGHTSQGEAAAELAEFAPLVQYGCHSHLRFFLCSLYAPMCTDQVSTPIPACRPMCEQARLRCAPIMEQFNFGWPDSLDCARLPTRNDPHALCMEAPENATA
Assay: flow cytometry, CHO-CRD cells;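 further: flow cytometry of Fab binding to CHO cells overexpressing a Frizzled CRD, with binding defined as median fluorescence over twice that of CHO cells lacking any Frizzled CRD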
parameter measured: median fluorescence
Note: the reply should be a number with no unit written.

input: Quick check: median fluorescence of Fab-2917 (Fab, V domains shown, Fab; also called Fv-2917) VH: EVQLVESGGGLVQPGGSLRLSCAASGFNFSSSSIHWVRQAPGKGLEWVASISSSYGYTYYADSVKGRFTISADTSKNTAYLQMNSLRAEDTAVYYCARAVWYYWWVWGGFDYWGQGTLVTVSS VL: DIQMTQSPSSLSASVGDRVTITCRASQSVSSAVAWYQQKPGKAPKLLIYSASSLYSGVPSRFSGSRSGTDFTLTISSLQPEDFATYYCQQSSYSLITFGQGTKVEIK ?
output: 3.49

input: And Fab-2904 (Fab, V domains shown, Fab; also called Fv-2904) VH: EVQLVESGGGLVQPGGSLRLSCAASGFNIYSYSMHWVRQAPGKGLEWVAYISSSYGYTSYADSVKGRFTISADTSKNTAYLQMNSLRAEDTAVYYCARSWYAWAMDYWGQGTLVTVSS VL: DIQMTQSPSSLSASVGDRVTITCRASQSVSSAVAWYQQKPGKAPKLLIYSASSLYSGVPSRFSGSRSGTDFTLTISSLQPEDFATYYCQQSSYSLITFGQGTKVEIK ?
output: 3.37
